Documented growth inhibition across a set of compounds
# assay-notes: NCI Yeast Anticancer Drug Screen. Data for the rad50 strain (AID 155);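 also: 0% = growth of vehicle-only cultures of the same strain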
# experimental-conditions: S. cerevisiae rad50 strain growth inhibition; at 50.0 µM; hits give high values
This is part of a sample that, as a whole, favours compounds with a hit. Of some 79,000 tested, about 15% had one in any assay.
Kindly provide the numeric value in % only, without the unit symbol.

Some entries whose results are on file:
COC(=O)CCBr    -19.8
N#CC(C#N)=C(N)/C(C#N)=C\c1ccnc2ccccc12    -28.9
CC(=O)OCC(=O)c1cc(C)n(C)c(=O)c1CN1C(=O)c2ccccc2C1=O    -10.7
Cc1ccc(SCC(=O)O)c(C)c1    27.1
CC(=O)Nc1ccc(C(=O)N2C(=N)C(C#N)=C(O)/C2=C\c2ccc(Cl)c(Cl)c2)cc1    -7.3
CCC1CN2CCc3cc(OC)c(OC)cc3C2CC1CCCl (stereo not given)    -8.6

Give the measured growth inhibition of COc1ccc2ccccc2c1C1NC(=O)c2ccccc2N1 (stereo not given) .
13.1

Give the measured growth inhibition of CC(CO)(CO)CN1CCCCC1 .
-2.25

Give the measured growth inhibition of O=C(C[n+]1cccc2ccccc21)c1ccc(F)cc1 .
-0.05

Give the measured growth inhibition of CC(C)(C)CC(C)(C)NCc1ccccc1 .
22.9

Give the measured growth inhibition of N#C/C(N)=C(\C#N)N=CNc1ccc(N)cc1 .
-32.8

Give the measured growth inhibition of CC(=O)OCc1ccc(C)c(COC(C)=O)c1 .
3.45

Give the measured growth inhibition of Cc1c(C)c(CN)c(C)c(C)c1CN .
-30.5

Give the measured growth inhibition of O=S(=O)(Nc1cccc(Cl)c1)c1ccc(Cl)cc1 .
99.7

Give the measured growth inhibition of N#C/C(=C\NC(N)=S)c1nc2ccccc2s1 .
-18.1

###

# assay-notes: NCI Yeast Anticancer Drug Screen. Data for the bub3 strain (AID 167)
# experimental-conditions: S. cerevisiae bub3 mutant strain, at 50.0 µM, hits give high values
# Protocol: Growth inhibition of yeast strains with defined genetic alterations is measured as a screen for potential anti-cancer activity. Selected strains with alterations in DNA damage repair or cell cycle control were exposed to compounds and growth inhibition was measured relative to vehicle treated controls. The strain used in this assay is bub3
About 79,000 compounds went through this panel and 15% of them were active in at least one assay; those are over-represented in the sample as a whole.
observation-type: growth inhibition (%)
Kindly provide the numeric value in % only, without the unit symbol.

Some entries whose results are on file:
COC(=O)/C=C(\S/C=C(/c1ccccc1)N1CCn2c(C(=O)c3ccccc3)c(C(=O)OC)c(C(=O)OC)c21)C(=O)OC    54.1
COc1ccc(C2C3=C(COC3=O)Oc3cc4c(cc32)OCO4)cc1OC (centres undefined)    5.45
COc1ccccc1N1C(=O)C2c3[nH]c4ccccc4c3C3CCC(C(C)(C)C)CC3C2C1=O (centres undefined)    -16.2
C[N+]1(C)C/C(=C\c2ccc(O)cc2)C(=O)/C(=C/c2ccc(O)cc2)C1    -9.75

Give the measured growth inhibition of C=CCCCCCCCCCOC=O .
34.3

Give the measured growth inhibition of OCC1NC(COC2OC(CO)C(O)C(O)C2O)C(O)C(O)C1O (centres undefined) .
-0.25

Give the measured growth inhibition of CC(=O)C1C(=O)C(=O)N(c2ccccc2C)C1=O (centres undefined) .
-24.9

Give the measured growth inhibition of CCn1c2ccc(C=O)cc2c2cc([N+](=O)[O-])ccc21 .
-4.7

Give the measured growth inhibition of N#C/C(=C\c1cccc(N)c1)c1ccccc1 .
88

Give the measured growth inhibition of Cn1nnc2c(C(N)=S)ncn2c1=O .
17.9

Give the measured growth inhibition of O=S(=O)(SC1=NCCN1)c1ccc2ccccc2c1 .
-3

Give the measured growth inhibition of CC(C)(C)C(=O)/C=C/c1ccc(Oc2ccccc2)cc1 .
-19.8
